Listing: melting point of selected compounds

>  <COMPOUND>
O=C(Nc1ccc(N2CCCC2)cc1)N(C[C@H]1CC[C@H](CN(C(=O)Nc2ccc(N3CCCC3)cc2)C2CCCCCC2)CC1)C1CCCCCC1

>  <melting point>
152 to 155 °C

$$$$
>  <COMPOUND>
CC(CN1CCC(NC(=O)C2CC2)CC1)c1ccc(C(=O)c2ccccc2)cc1 (centres undefined)

>  <melting point>
159 to 160 °C

$$$$
>  <COMPOUND>
CCc1noc(C)c1-c1[nH]c2ccccc2c1C(=O)CCC(=O)N(C)C

>  <melting point>
144 to 148 °C

$$$$
>  <COMPOUND>
Fc1ccccc1-c1nc(Cl)nc2ccc(Cl)cc12

>  <melting point>
208 to 210 °C

$$$$
>  <COMPOUND>
COc1ccc(OC(=O)CN2CCN(Cc3ccc(OC)c(OC)c3OC)CC2)cc1

>  <melting point>
68 to 71 °C

$$$$

[in] Given the entry `Cc1cc2oc(=O)c(NC(=O)Nc3ccc(Cl)cc3)c(-c3ccccc3C)c2cc1C` , report its measured melting point.
[out] 234 to 236 °C

[in] Given the entry `C[C@@H](N)CN(c1ccccn1)S(=O)(=O)O` , report its measured melting point.
[out] 176 to 179 °C

[in] Given the entry `Cc1nc[nH]c1CN1CCC(Nc2nc3ccccc3n2Cc2ccco2)CC1` , report its measured melting point.
[out] 242 °C

[in] Given the entry `COc1cc(Nc2c(C#N)cnc3cc(-c4ccc(CN5CCN(C)CC5)s4)ccc23)c(Cl)cc1Cl` , report its measured melting point.
[out] 206 to 208 °C

###

Listing: melting point of selected compounds

>  <COMPOUND>
O=c1oc(-c2cccc(C(F)(F)F)c2)nc2ccc(F)cc12

>  <melting point>
118 to 119 °C

$$$$

// next entry
[in] Given the entry CC(C(=O)O)c1ccc(CC2CCCC2=NO)cc1 (stereo not given) , report its measured melting point.
[out] 146 to 148 °C

###

METRIC: melting point

Here is how some molecules turned out for melting point.
>  <MOLECULE>
CC(=O)OCc1ccc2sc(S(N)(=O)=O)cc2c1

>  <VALUE MEASURED>
113 to 115 °C

$$$$
>  <MOLECULE>
CN(C)CCNc1ccc([N+](=O)[O-])c2sc3ccccc3c(=O)c12

>  <VALUE MEASURED>
177 to 179 °C

$$$$

[in] Given the entry `NC(=O)c1ccc(OC(F)(F)C(F)(F)Br)cc1` , report its measured melting point.
[out] 150 to 152 °C

[in] Given the entry `CCCc1nc(-n2cccc2)c(C(=O)OC)[nH]1` , report its measured melting point.
[out] 135 to 138 °C

[in] Given the entry `NC(=O)NCCC(F)=C(F)F` , report its measured melting point.
[out] 86 to 88 °C

[in] Given the entry CC1(C)Oc2ccc(S(=O)(=O)c3ccccc3)cc2C(N)C1O (stereo unspecified) , report its measured melting point.
[out] 160 to 163 °C

[in] Given the entry CC(=O)C(CC=Cc1ccccc1Cl)(CCC(=O)O)c1ccccc1 (stereo unspecified) , report its measured melting point.
[out] 95 to 110 °C

###

Listing: melting point of selected molecules

Here is how some molecules turned out for melting point.
>  <MOLECULE>
COc1ccc(CNc2n[nH]c(N)c2C#N)cc1

>  <melting point>
148 to 149 °C

$$$$
>  <MOLECULE>
Fc1ccccc1COC1COC(CCl)OC1 (configuration not stated)

>  <melting point>
60 to 62 °C

$$$$
>  <MOLECULE>
O=C(Nc1cccc(C(=O)O)c1)NC1C(=O)N(CC(=O)N2CCCC2)c2ccccc2N(C2CCCCC2)C1=O (configuration not stated)

>  <melting point>
275 to 276 °C

$$$$

// next entry
[in] Given the entry `Cc1ccc(CN(C)C(=O)c2cnn(C)c2C(=O)Nc2ccn3nc(-c4ccccc4)nc3c2)cn1` , report its measured melting point.
[out] 110 to 150 °C

###

Listing: melting point of selected compounds

Here is how some compounds turned out for melting point.
>  <COMPOUND>
Cn1c(C(F)(F)F)cc(=O)n(-c2ccc(OCc3ccc(Cl)cc3)cc2)c1=O

>  <METRIC>
melting point

>  <VALUE MEASURED>
167 to 169 °C

$$$$
>  <COMPOUND>
CC(C)(C)OC(=O)COc1ccc(NC(=O)NC(=O)c2ccc(C#N)nc2)cc1

>  <METRIC>
melting point

>  <VALUE MEASURED>
220 to 222 °C

$$$$
>  <COMPOUND>
ClCc1c2ccccc2c(CCl)c2ccccc12

>  <METRIC>
melting point

>  <VALUE MEASURED>
238 to 243 °C

$$$$
>  <COMPOUND>
CC(=O)OCC1CC(n2c(=S)[nH]c3cc(Cl)c(Cl)cc32)C(OC(C)=O)C1OC(C)=O (stereo not given)

>  <METRIC>
melting point

>  <VALUE MEASURED>
208 to 209 °C

$$$$

// next entry
[in] Given the entry `COC(=O)c1ccc2c(c1)C=CC(=CCl)CO2` , report its measured melting point.
[out] 72 to 77 °C

###

METRIC: melting point

Here is how some compounds turned out for melting point.
>  <COMPOUND>
OCCCNc1cc(-n2cccn2)nc(-c2cccs2)n1

>  <melting point>
130 to 131 °C

$$$$
>  <COMPOUND>
CCn1c(=O)[nH]c2c(C)nn(CC)c2c1=O

>  <melting point>
208 to 209 °C

$$$$
>  <COMPOUND>
COC(=O)C=CCC1C(=O)N2C(C(=O)OCc3ccc([N+](=O)[O-])cc3)=CCC12 (stereo not given)

>  <melting point>
109 to 111 °C

$$$$
>  <COMPOUND>
Cc1cn2c(nc1=O)CCC2

>  <melting point>
82 °C

$$$$

[in] Given the entry N[C@@H](Cc1ccccc1)C(=O)N(CC1CC(Cl)=NO1)C(=O)OCc1ccccc1 (stereo not given in full) , report its measured melting point.
[out] 141 to 148 °C

[in] Given the entry `COc1cc([N+](=O)[O-])ccc1N1CCN(CCCNc2c(C)c(=O)n(C)c(=O)n2C)CC1` , report its measured melting point.
[out] 131 to 133 °C

[in] Given the entry `Cc1c(CC(C)(C)C(=O)O)n(Cc2ccc(Cl)cc2)c2ccc(OCc3ccc4ccccc4n3)cc12` , report its measured melting point.
[out] 215 to 217 °C

[in] Given the entry `C(=Cc1ccc(N(c2ccccc2)c2ccccc2)cc1)c1ccc(N(c2ccccc2)c2ccccc2)cc1` , report its measured melting point.
[out] 247 to 259 °C

[in] Given the entry `Cc1cccc(OCC(=S)NCCN2CCCC2)c1C` , report its measured melting point.
[out] 62 to 64 °C

[in] Given the entry `Clc1cc(Cl)c(OCOCOc2c(Cl)cc(Cl)cc2Cl)c(Cl)c1` , report its measured melting point.
[out] 179 to 181 °C

[in] Given the entry CCNCC1CCN(c2nc3c(cc2F)c(=O)c(C(=O)O)cn3CC)C1 (stereo not given) , report its measured melting point.
[out] 230 to 232 °C

###

METRIC: melting point

Here is how some molecules turned out for melting point.
>  <MOLECULE>
CCOC(=O)c1ccc(NC(=O)c2sc3ccc(OC)cc3c2OC(C)C)nc1

>  <melting point>
131 to 133 °C

$$$$
>  <MOLECULE>
COc1ccccc1CCSc1c(O)cc(-c2ccccc2)oc1=O

>  <melting point>
114 to 115 °C

$$$$
>  <MOLECULE>
O=C1NC2(C(=O)O)CC3CC1C2C3 (centres undefined)

>  <melting point>
298 to 300 °C

$$$$
>  <MOLECULE>
CC(C)(Oc1ccc(OCc2cccc3c2cnn3-c2ccc(C(F)(F)F)cc2)cc1)C(=O)O

>  <melting point>
128 to 130 °C

$$$$
>  <MOLECULE>
CC(Oc1ccccc1[N+](=O)[O-])C(=O)NCCO[N+](=O)[O-] (centres undefined)

>  <melting point>
65 to 67 °C

$$$$

[in] Given the entry `CCOc1ccc(C2(C(=O)Oc3ccc(C(=O)NO)cc3)CCCCC2)cc1` , report its measured melting point.
[out] 140 to 143 °C

[in] Given the entry CCOC(=O)N1CC[C@H](NC(=O)c2cc([N+](=O)[O-])c(Cl)cc2OC)[C@H](OC)C1 (relative stereo) , report its measured melting point.
[out] 181 °C

[in] Given the entry CCCCN(CCCC)S(=O)(=O)c1ccc(C(CC2CCCC2)C(=O)Nc2nc3ccc(OC)nc3s2)cc1 (centres undefined) , report its measured melting point.
[out] 65 to 67 °C

[in] Given the entry `COc1ccc(C(=O)Nc2ccccc2)cc1Nc1ccc(F)cc1` , report its measured melting point.
[out] 178 to 180 °C
